molecular target: Factor XIa (Homo sapiens (Human)); assay: Factor XIa inhibition assay (FLINT) utilizing a fluorophore-quencher pair peptide substrate; format: biochemical; settings: 30 min preincubation, kinetic reads over 30 min, 5Fam-KLTRAETV-K5Tamra substrate 15 μM; read-out: FXIa Kin Inh IC50
VALUE TYPE: IC50 (nM)
Express it in nM; write the number only.

// IC50 lookup, key: CC1=CCc2c(-c3cnc(C4CCC5CC(c6c(-n7cnnn7)ccc(Cl)c6F)=CC(=O)N54)[nH]3)ccnc21 (stereo not drawn) 0.8

Repeat with Nc1cc(-c2cnc([C@@H]3CC[C@@H]4CC(c5c(-n6cnnn6)ccc(Cl)c5F)=CC(=O)N43)[nH]2)c(Cl)cn1 3.7

Repeat with O=C1C=C(c2c(-n3cnnn3)ccc(Cl)c2F)C[C@@H]2CC[C@H](c3ncc(-c4ccnc(N5CCC[C@@H](O)C5)c4F)[nH]3)N12 (stereo in doubt) 3.7

Repeat with O=C1C=C(c2c(-n3cnnn3)ccc(Cl)c2F)CC2CC[C@@H](c3ncc(-c4ccc5[nH]c(=O)ncc5c4)[nH]3)N12 (stereo partly drawn) 0.5

Repeat with O=C1C=C(c2c(-n3cnnn3)ccc(Cl)c2F)C[C@H]2CC[C@H](c3ncc(-c4c[nH]nc4C(F)(F)F)[nH]3)N12 (single isomer, unassigned) 1.5

Repeat with NC(=O)c1cc(-c2nc([C@@H]3CCC4CC(c5c(-n6cnnn6)ccc(Cl)c5F)=CC(=O)N43)[nH]c2Cl)cs1 (stereo partly drawn) 0.3

----------
target: Factor XIa (Homo sapiens (Human), UniProt P03951); test: Factor XIa inhibition assay (FLINT) utilizing a fluorophore-quencher pair peptide substrate; assay type: biochemical; details: 30 min preincubation, kinetic reads over 30 min, 5Fam-KLTRAETV-K5Tamra substrate 15 μM; read-out: FXIa Kin Inh IC50
Sequence (P03951 388-625): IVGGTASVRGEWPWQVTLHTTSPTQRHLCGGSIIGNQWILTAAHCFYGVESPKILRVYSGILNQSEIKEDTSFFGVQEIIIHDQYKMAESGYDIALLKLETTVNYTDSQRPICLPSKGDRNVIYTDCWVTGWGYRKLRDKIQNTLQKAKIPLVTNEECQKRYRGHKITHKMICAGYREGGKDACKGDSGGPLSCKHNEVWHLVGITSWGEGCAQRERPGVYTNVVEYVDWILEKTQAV
Sequence (P03951 19-387 partner): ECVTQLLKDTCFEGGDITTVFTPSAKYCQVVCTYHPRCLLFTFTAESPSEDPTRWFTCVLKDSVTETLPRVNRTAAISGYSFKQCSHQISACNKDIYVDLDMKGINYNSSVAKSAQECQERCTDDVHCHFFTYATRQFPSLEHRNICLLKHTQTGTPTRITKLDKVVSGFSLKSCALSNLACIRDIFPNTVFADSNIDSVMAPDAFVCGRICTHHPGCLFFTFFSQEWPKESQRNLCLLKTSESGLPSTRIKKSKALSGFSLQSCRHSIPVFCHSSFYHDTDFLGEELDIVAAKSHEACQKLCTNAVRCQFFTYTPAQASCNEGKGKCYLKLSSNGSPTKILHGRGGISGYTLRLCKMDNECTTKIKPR
Would you kindly list IC50 for each of these molecules?
Express it in nM; write the number only.

Identify the measured IC50 of COc1ccccc1-c1c[nH]c([C@@H]2CCC3CC(c4c(-n5cnnn5)ccc(Cl)c4F)=CC(=O)N32)n1 (stereo partly drawn) [Example 317] for Factor XIa (Homo sapiens (Human), UniProt P03951). 5.3

Repeat with Cc1c(-c2cnc([C@@H]3CCC4CC(c5c(-n6cnnn6)ccc(Cl)c5F)=CC(=O)N43)[nH]2)ccnc1N (stereo partly drawn) [Example 21] 6.3

Repeat with CCOC(=O)Nc1ncccc1-c1c[nH]c([C@@H]2CC[C@H]3CC(c4c(-n5cnnn5)ccc(Cl)c4F)=CC(=O)N32)n1 [Example 262] 45.8

Repeat with COc1n[nH]cc1-c1cnc([C@@H]2CC[C@@H]3CC(c4c(-n5cnnn5)ccc(Cl)c4F)=CC(=O)N32)[nH]1 [Example 227] 3.5

Repeat with [2H]c1nc([C@@H]2CC[C@@H]3CC(c4c(-n5cnnn5)ccc(Cl)c4F)=CC(=O)N32)[nH]c1-c1c(F)nc(N)c([2H])c1[2H] [Example 149] 0.5

Repeat with Cc1cc(C(=O)Nc2nccc(-c3cnc([C@@H]4CC[C@@H]5CC(c6c(-n7cnnn7)ccc(Cl)c6F)=CC(=O)N54)[nH]3)c2F)on1 [Example 5] 4.2

Repeat with C[C@@H](Oc1nccc(-c2cnc([C@@H]3CC[C@@H]4CC(c5c(-n6cnnn6)ccc(Cl)c5F)=CC(=O)N43)[nH]2)c1F)c1ncco1 (single isomer, unassigned) [Example 141] 10.8

Repeat with NC(=O)c1sc(-c2c[nH]c([C@@H]3CC[C@@H]4CC(c5c(-n6cnnn6)ccc(Cl)c5F)=CC(=O)N43)n2)cc1F [Example 216] 19.6

Repeat with COC(=O)Nc1ccc(-c2cnc([C@@H]3CCC4CC(c5c(-n6cnnn6)ccc(Cl)c5F)=CC(=O)N43)[nH]2)nc1 (stereo partly drawn) [Example 326] 1

Repeat with [2H]c1cc(Cl)c(F)c(C2=CC(=O)N3[C@H](CC[C@H]3c3nc(-c4ccc(N)nc4F)c[nH]3)C2)c1-n1cnnn1 [Example 153] 0.5

Repeat with O=C1C=C(c2c(-n3cnnn3)ccc(Cl)c2F)C[C@H]2CC[C@@H](c3ncc(-c4ccc5cc[nH]c5c4)[nH]3)N12 [Example 8] 3.7

Repeat with CCN(CCO)c1nccc(-c2cnc([C@@H]3CC[C@@H]4CC(c5c(-n6cnnn6)ccc(Cl)c5F)=CC(=O)N43)[nH]2)c1F (single isomer, unassigned) [Example 136] 4.8
